# TESTED_TARGET: GLP-1R (Homo sapiens, UniProt P43220)
# Sequence (P43220 24-463): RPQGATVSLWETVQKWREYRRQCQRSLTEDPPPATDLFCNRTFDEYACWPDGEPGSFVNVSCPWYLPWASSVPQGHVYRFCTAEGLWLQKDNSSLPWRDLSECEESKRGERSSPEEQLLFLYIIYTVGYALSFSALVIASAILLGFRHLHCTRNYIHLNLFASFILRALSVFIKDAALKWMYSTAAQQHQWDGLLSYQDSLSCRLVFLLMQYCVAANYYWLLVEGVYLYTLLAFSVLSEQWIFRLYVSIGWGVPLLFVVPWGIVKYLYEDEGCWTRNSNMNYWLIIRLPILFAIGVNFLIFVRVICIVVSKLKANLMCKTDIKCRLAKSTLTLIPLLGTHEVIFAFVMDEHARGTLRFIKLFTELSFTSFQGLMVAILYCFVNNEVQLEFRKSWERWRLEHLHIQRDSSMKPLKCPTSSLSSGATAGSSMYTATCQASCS
# TEST_DETAILS: GLP-1R cAMP assay of peptides (Tables 10, 14, 15)
# Assay type: cell-based
# TEST_CONDITIONS: Table 10; read-out: GLP-1R CAMP EC50
pEC50: −log10 of the molar value. Non-standard residues stand in square brackets, D forms with d. Residues, ends and D or L forms follow the SMILES beside them. *: point of attachment. Malonyl(2,2-Me2,histaminyl) = CC(C)(C(=O)NCCc1cnc[nH]1)C(=O)*; Ala(1H-tetrazol-5-yl) = N[C@@H](Cc1nnn[nH]1)C(=O)O; αMePhe(2-F) = C[C@](N)(Cc1ccccc1F)C(=O)O
MEASURED_ENDPOINT: pEC50

1. CCc1cc(OCCCCn2cc(COCCOCCOCCOCCOCCOCCOCCOCCNC(=O)CC[C@H](NC(=O)[C@H](CC(C)C)NC(=O)[C@@H](N)CC(C)C)C(=O)O)nn2)ccc1-c1ccc(C[C@H](NC(=O)[C@H](CC(=O)O)NC(=O)[C@H](CO)NC(=O)[C@@H](NC(=O)C(C)(Cc2ccccc2F)NC(=O)[C@@H](NC(=O)CNC(=O)[C@H](Cc2nn[nH]n2)NC(=O)C(C)(C)C(=O)NCCc2cnc[nH]2)[C@@H](C)O)[C@@H](C)O)C(=O)O)cc1 (stereo partly drawn) ... < 6.00
2. C[C@@H](O)[C@H](NC(=O)CNC(=O)[C@H](Cc1nn[nH]n1)NC(=O)C(C)(C)C(=O)NCCc1cnc[nH]1)C(=O)O ... < 6.00

Now consider a different compound.
Record C[C@@H](O)[C@H](NC(=O)[C@](C)(Cc1ccccc1F)NC(=O)[C@@H](NC(=O)CNC(=O)[C@H](Cc1nn[nH]n1)NC(=O)C(C)(C)C(=O)NCCc1cnc[nH]1)[C@@H](C)O)C(=O)O [AA10-AA9-AA8-AA7-AA6-AA5-OH] ({Malonyl(2,2-Me2,histaminyl)}-[Ala(1H-tetrazol-5-yl)]GT[αMePhe(2-F)]T-OH) . Reported pEC50: < 6.00

The measured values listed here are drawn from patent US20250171516A1.
